B1: HDV Ribozyme (parent)
chain: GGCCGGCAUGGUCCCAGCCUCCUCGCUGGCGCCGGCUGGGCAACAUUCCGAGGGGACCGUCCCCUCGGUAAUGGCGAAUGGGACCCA

variants of: B1; assay: self-cleavage, relative activity (ratio to wild type); higher = more cleavage; co-transcriptional
Catalogue of self-cleavage values

The cases that follow already have their self-cleavage on record.
G6A U47G | 1.01
C22U G34U | 0.145
U46C C85G | 0.675
A43U C86U | 0.563
C15G G35U | 0.0396
C64U G80A | 0.397
C7G C33A | 0.196
C58G U69G | 1.17
C30G A70U | 0.0468
G6U G54A | 0.522

Ask | Requested read-out: self-cleavage. Entry: G1U G54A
Reply | 0.277

Ask | What self-cleavage value was documented for this variant, G6U G68C ?
Reply | 0.383

Ask | Give its self-cleavage value. Item: U60C G81U
Reply | 0.424

Ask | Look up self-cleavage for this variant: C22A U69G
Reply | 0.394

Ask | // self-cleavage lookup, key: U37C A43G
Reply | 0.332
